- System: NCI-H661
- Assay info: relative viability (nuclei count vs DMSO), 5 days (fraction); higher = more cells survive
- Condition context: first compound 0.01 µM
Property label: relative viability
Answer field: number only, no words.

Worked cases, answers included:
Compound	Property label	Value reported
NC(=O)Nc1cc(-c2cccc(F)c2)sc1C(=O)N[C@H]1CCCNC1 [AZD7762] + Cc1nc(NC(=O)N2CCC[C@H]2C(N)=O)sc1-c1ccnc(C(C)(C)C(F)(F)F)c1 [Alpelisib] (partner 2 µM)	relative viability	0.712
NC(=O)Nc1cc(-c2cccc(F)c2)sc1C(=O)N[C@H]1CCCNC1 [AZD7762] + CCNC(=O)c1noc(-c2cc(C(C)C)c(O)cc2O)c1-c1ccc(CN2CCOCC2)cc1 [Luminespib] (partner 0.01 µM)	relative viability	1.01
NC(=O)Nc1cc(-c2cccc(F)c2)sc1C(=O)N[C@H]1CCCNC1 [AZD7762] + Cc1nc(Nc2ncc(C(=O)Nc3c(C)cccc3Cl)s2)cc(N2CCN(CCO)CC2)n1 [Dasatinib] (partner 0.075 µM)	relative viability	0.753

Now turn to the next compound.
Request: Report relative viability for NC(=O)Nc1cc(-c2cccc(F)c2)sc1C(=O)N[C@H]1CCCNC1 [AZD7762] + CS(=O)(=O)N1CCN(Cc2cc3nc(-c4cccc5[nH]ncc45)nc(N4CCOCC4)c3s2)CC1 [Pictilisib] (partner 1 µM) please.
Response: 0.41

----------
Form field: relative viability (one value per entry).
- System: NCI-H1651
- Assay info: relative viability (nuclei count vs DMSO), 5 days (fraction); higher = more cells survive
- Condition context: first compound 0.8 µM
Answer field: number only, no words.

Worked cases, answers included:
Compound	Value reported
C=C1C(=O)O[C@@H](CCCCCCCC)[C@@H]1C(=O)O [C-75] + CC(=O)Nc1cccc(-n2c(=O)n(C3CC3)c(=O)c3c(Nc4ccc(I)cc4F)n(C)c(=O)c(C)c32)c1 [Trametinib] (partner 0.02 µM)	0.862
Oc1nc(-c2ccc(C(F)(F)F)cc2)nc2c1CSCC2 [XAV939] + NC(=O)Nc1cc(-c2cccc(F)c2)sc1C(=O)N[C@H]1CCCNC1 [AZD7762] (partner 0.2 µM)	0.383

Now turn to the next compound.
Request: // lookup relative viability | system=NCI-H1651 | key= Oc1nc(-c2ccc(C(F)(F)F)cc2)nc2c1CSCC2 [XAV939] + CS(=O)(=O)N1CCN(Cc2cc3nc(-c4cccc5[nH]ncc45)nc(N4CCOCC4)c3s2)CC1 [Pictilisib] (partner 1 µM)
Response: 0.53

----------
- Test system: NCI-H1755
- Assay info: relative viability (nuclei count vs DMSO), 5 days (fraction); higher = more cells survive
- Condition context: first compound 0.08 µM
Property label: relative viability
Answer field: number only, no words.

Worked cases, answers included:
Compound	System tested	relative viability
Oc1nc(-c2ccc(C(F)(F)F)cc2)nc2c1CSCC2 [XAV939] + C[C@]1(O)C[C@@H](c2nc(-c3ccc4ccc(-c5ccccc5)nc4c3)c3c(N)nccn32)C1 [Linsitinib] (partner 1 µM)	NCI-H1755	0.975
C=C1C(=O)O[C@@H](CCCCCCCC)[C@@H]1C(=O)O [C-75] + COc1cc2c(Oc3ccc(NC(=O)C4(C(=O)Nc5ccc(F)cc5)CC4)cc3F)ccnc2cc1OCCCN1CCOCC1 [Foretinib] (partner 0.25 µM)	NCI-H1755	0.922
C=C1C(=O)O[C@@H](CCCCCCCC)[C@@H]1C(=O)O [C-75] + Cc1cc(Nc2cc(N3CCN(C)CC3)nc(Sc3ccc(NC(=O)C4CC4)cc3)n2)n[nH]1 [Tozasertib] (partner 0.1 µM)	NCI-H1755	0.568

Request: Report relative viability for C=C1C(=O)O[C@@H](CCCCCCCC)[C@@H]1C(=O)O [C-75] + C[C@]1(O)C[C@@H](c2nc(-c3ccc4ccc(-c5ccccc5)nc4c3)c3c(N)nccn32)C1 [Linsitinib] (partner 1 µM) please.
Response: 0.946

Request: Report relative viability for C=C1C(=O)O[C@@H](CCCCCCCC)[C@@H]1C(=O)O [C-75] + CC(C)C[C@H](NC(=O)[C@H](Cc1ccccc1)NC(=O)c1cnccn1)B(O)O [Bortezomib] (partner 0.002 µM) please.
Response: 0.985

Request: Report relative viability for Oc1nc(-c2ccc(C(F)(F)F)cc2)nc2c1CSCC2 [XAV939] + COc1cc2c(Oc3ccc(NC(=O)C4(C(=O)Nc5ccc(F)cc5)CC4)cc3F)ccnc2cc1OCCCN1CCOCC1 [Foretinib] (partner 0.25 µM) please.
Response: 0.891

Request: Report relative viability for Oc1nc(-c2ccc(C(F)(F)F)cc2)nc2c1CSCC2 [XAV939] + CC(C)C[C@H](NC(=O)[C@H](Cc1ccccc1)NC(=O)c1cnccn1)B(O)O [Bortezomib] (partner 0.002 µM) please.
Response: 0.91

Request: Report relative viability for C=C1C(=O)O[C@@H](CCCCCCCC)[C@@H]1C(=O)O [C-75] + Nc1nc2[nH]cc(CCc3ccc(C(=O)N[C@@H](CCC(=O)O)C(=O)O)cc3)c2c(=O)[nH]1 [Pemetrexed] (partner 0.2 µM) please.
Response: 0.457
